- target.or.system: Mas (Homo sapiens)
- Sequence (P04201 1-325): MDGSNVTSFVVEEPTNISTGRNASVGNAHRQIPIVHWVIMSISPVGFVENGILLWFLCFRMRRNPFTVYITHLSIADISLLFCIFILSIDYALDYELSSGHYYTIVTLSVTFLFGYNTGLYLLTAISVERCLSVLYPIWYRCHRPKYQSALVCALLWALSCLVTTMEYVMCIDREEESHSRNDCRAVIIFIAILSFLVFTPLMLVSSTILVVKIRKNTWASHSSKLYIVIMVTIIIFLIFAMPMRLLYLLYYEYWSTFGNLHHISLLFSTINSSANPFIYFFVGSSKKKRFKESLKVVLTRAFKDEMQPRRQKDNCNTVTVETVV
- protocol.details: NO production in CHO cells stably transfected with Human Mas1
- measurement.context: Mas-transfected CHO cells, 2 hours
outcome.measure: pEC50
Scale: pEC50 equals -log10([C]), with [C] in mol/L.

## Task Entry CCCCOC(=O)NS(=O)(=O)c1ccc(OC(F)(F)F)cc1-c1ccc(Cn2ccnc2)cn1 : reported pEC50 = ?
## Result 8.00

* * *

- target.or.system: AT2R (Homo sapiens)
- Sequence (P50052 whole entry): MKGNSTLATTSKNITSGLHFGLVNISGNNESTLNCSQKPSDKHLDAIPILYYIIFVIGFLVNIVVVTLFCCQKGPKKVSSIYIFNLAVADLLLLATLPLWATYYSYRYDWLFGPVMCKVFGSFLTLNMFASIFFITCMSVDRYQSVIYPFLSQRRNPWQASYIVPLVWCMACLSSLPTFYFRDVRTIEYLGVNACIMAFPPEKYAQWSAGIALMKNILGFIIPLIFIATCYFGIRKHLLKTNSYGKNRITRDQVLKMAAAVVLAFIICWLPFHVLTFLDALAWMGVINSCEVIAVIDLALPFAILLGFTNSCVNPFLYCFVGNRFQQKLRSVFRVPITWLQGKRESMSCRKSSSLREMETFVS
- protocol.details: AT2R displacement assay with radiolabeled Ang II
- measurement.context: displacement of radiolabeled Ang II or analogs; read-out: EC50 displacing Ang II in the AT2R displacement assay
outcome.measure: EC50

## Task Entry CCCCOC(=O)NS(=O)(=O)c1ccc(OC(F)(F)F)cc1-c1ccc(Cn2ccnc2)cn1 [Compound 7] : reported EC50 = ?
## Result > 10 µM

* * *

- target.or.system: Mas (Homo sapiens, UniProt P04201)
- Construct: expressed in transfected cells
- Sequence (P04201 1-325): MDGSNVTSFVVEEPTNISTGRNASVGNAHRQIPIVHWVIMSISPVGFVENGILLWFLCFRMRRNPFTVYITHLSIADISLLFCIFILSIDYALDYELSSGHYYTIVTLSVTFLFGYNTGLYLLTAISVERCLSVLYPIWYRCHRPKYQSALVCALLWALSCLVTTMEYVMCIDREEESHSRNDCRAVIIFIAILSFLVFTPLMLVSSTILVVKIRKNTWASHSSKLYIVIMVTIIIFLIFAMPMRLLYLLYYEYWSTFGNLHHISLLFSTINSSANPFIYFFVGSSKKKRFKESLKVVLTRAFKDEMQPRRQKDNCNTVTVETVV
- protocol.details: Competition binding assay, displacement of fluorescent Ang(1-7) from Mas-transfected CHO cells
- Design: concentration or dose not given beside the values
- measurement.context: CHO cells transfected with Human mas1, on ice
outcome.measure: % Displacement (%)
Field: numeric (%). Do not append units.

Examples with answers:
## Task Entry CCCCOC(=O)NS(=O)(=O)c1ccc(OC(F)(F)F)cc1-c1ccc(CN2CCN(C)CC2)cn1 : reported % Displacement = ?
## Result 22.0

## Task Entry CCCCOC(=O)NS(=O)(=O)c1ccc(OC(F)(F)F)cc1-c1ccc(Cn2ccnc2)cn1 : reported % Displacement = ?
## Result 28.1

---
## Task Entry CCCCOC(=O)NS(=O)(=O)c1ccc(OC(F)(F)F)cc1-c1ccc(CN2CCOCC2)cn1 : reported % Displacement = ?
## Result 17.3

## Task Entry CCCCOC(=O)NS(=O)(=O)c1ccc(OC(F)(F)F)cc1-c1ncc(Cn2ccnc2)s1 : reported % Displacement = ?
## Result 23.0

## Task Entry CCCCOC(=O)NS(=O)(=O)c1ccc(OC(F)(F)F)cc1-c1ccc(CN2CCN(C)C2=O)cn1 : reported % Displacement = ?
## Result 18.6
